Target: HDAC2 (Homo sapiens (Human), UniProt Q92769)
Sequence (Q92769 whole entry): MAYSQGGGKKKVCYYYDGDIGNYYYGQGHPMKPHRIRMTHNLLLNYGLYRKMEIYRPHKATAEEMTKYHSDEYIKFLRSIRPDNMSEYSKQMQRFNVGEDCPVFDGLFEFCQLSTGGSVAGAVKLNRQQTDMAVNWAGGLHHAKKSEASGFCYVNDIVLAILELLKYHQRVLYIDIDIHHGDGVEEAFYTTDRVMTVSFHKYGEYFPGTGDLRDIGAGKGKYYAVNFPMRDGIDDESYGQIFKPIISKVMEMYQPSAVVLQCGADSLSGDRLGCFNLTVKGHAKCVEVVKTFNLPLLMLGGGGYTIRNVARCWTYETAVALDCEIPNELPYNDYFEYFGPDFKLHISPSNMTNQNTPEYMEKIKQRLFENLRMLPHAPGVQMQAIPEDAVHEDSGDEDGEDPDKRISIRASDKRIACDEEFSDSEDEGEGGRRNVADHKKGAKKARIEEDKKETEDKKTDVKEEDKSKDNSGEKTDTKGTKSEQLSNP
ASSAY_METRIC: pIC50
// pIC50 here means minus log10 of the molar concentration (mol/L)

Request: I'd like to know its pIC50. The compound in question is Nc1ccc(-c2ccncc2)cc1NC(=O)c1ccc2c(c1)cc(C1CC1)n2CCN1CCOCC1 [Compound 004]
Result: 7.62
